Assay: Aqueous solubility of compound at pH 4 by UPLC analysis
Type: physicochemical
Conditions: aqueous medium, read-out: solubility
Documented solubility across a set of compounds

# compound, solubility
records = [
    ("COC(=O)N[C@H](C(=O)N[C@@H](Cc1ccccc1)[C@H](CN(Cc1ccc(-c2ccccn2)cc1)NC(=O)[C@@H](NC(=O)OC)C(C)(C)C)OC(=O)OC(OC(=O)[C@@H](N)C(C)C)C(C)(C)C)C(C)(C)C (mixture of isomers)", "> 870 µg/mL"),
    ("COC(=O)N[C@H](C(=O)N[C@@H](Cc1ccccc1)[C@H](CN(Cc1ccc(-c2ccccn2)cc1)NC(=O)[C@@H](NC(=O)OC)C(C)(C)C)OC(=O)OC(OC(=O)[C@@H](NC(=O)[C@@H](N)C(C)C)C(C)C)C(C)C)C(C)(C)C (stereo in doubt; 6e)", "> 1100 µg/mL"),
    ("COC(=O)N[C@H](C(=O)N[C@@H](Cc1ccccc1)[C@H](CN(Cc1ccc(-c2ccccn2)cc1)NC(=O)[C@@H](NC(=O)OC)C(C)(C)C)OC(=O)OC(OC(=O)[C@H](C)N)C(C)C)C(C)(C)C (stereo in doubt; 3p)", "> 2400 µg/mL"),
]

Entry COC(=O)N[C@H](C(=O)N[C@@H](Cc1ccccc1)[C@H](CN(Cc1ccc(-c2ccccn2)cc1)NC(=O)[C@@H](NC(=O)OC)C(C)(C)C)OC(=O)OC(OC(=O)[C@@H](N)C(C)C)C1CCCCC1)C(C)(C)C (stereo in doubt; 4n) needs its solubility filled in; supply it. > 1400 µg/mL
